Record set: pIC50 | UniProt P00533 | literature, multiple sources.
pIC50: −log10 of the molar value.

Field: example entries. Status: answers known.
{"smiles input": "CN1CCN(c2ccc3nc(-c4cc(/C=C/c5ccc(O)cc5)[nH]n4)[nH]c3c2)CC1", "subject of test": "UniProt P00533", "pIC50": "< 5.30"}
{"smiles input": "COCCC(=O)N1CCC[C@@H](Nc2n[nH]c3nccc(Oc4ccc(C(=O)Nc5cc(C)ccn5)cc4)c23)C1", "subject of test": "UniProt P00533", "pIC50": "5.00 to 6.00"}
{"smiles input": "CCNC(=O)N1CCC[C@@H](Nc2n[nH]c3nccc(Oc4ccc(C(=O)Nc5cc(C)ccn5)cc4)c23)C1", "subject of test": "UniProt P00533", "pIC50": "< 5.00"}

Consider the additional molecule presented here.
Using the record for CC(C)c1nc(-c2cc(F)c(F)c(NS(=O)(=O)c3cccc(F)c3)c2)c(-c2ccnc(Nc3ccc(N4CCN(CCF)CC4)c(F)c3)n2)s1 , report its pIC50.
< 6.00

* * *

Record set: pIC50 | UniProtKB P00533 | literature, multiple sources.
pIC50: −log10 of the molar value.

Field: example entries. Status: answers known.
{"molecule": "C=CC(=O)Nc1cc(-c2c(-c3cccc(C(=O)N4CCOCC4)c3)[nH]c3nccc(Cl)c23)ccc1C", "pIC50": "6.30 to 7.00"}
{"molecule": "COc1ccccc1C(=O)NCc1ccc(-c2nn(C3CCCC3)c3ncnc(N)c23)c(OC)c1", "pIC50": "< 5.00"}
{"molecule": "C=CC(=O)N[C@@H]1CCCc2c(-c3cnc4ccccc4c3)c3c(N)ncnc3n2C1", "pIC50": 5.44}
{"molecule": "Cc1ccc(Oc2ccc(Nc3ncnc4sc5c(c34)CCN(C(=O)/C=C/CN[C@@H](C)CO)C5)cc2C)cn1", "pIC50": "5.00 to 6.00"}
{"molecule": "Cc1ccc(Oc2ccc(Nc3ncnc4sc5c(c34)CCN(C(=O)/C=C/CN3CCC(O)C(C)(C)C3)C5)cc2C)cn1 (stereo not shown)", "pIC50": "< 5.00"}
{"molecule": "CN(C/C=C/C(=O)N1CCCC[C@H]1CNc1n[nH]c2nccc(Oc3ccc(Oc4ccccc4)cc3)c12)C1CC1", "pIC50": "5.00 to 6.00"}

Consider the additional molecule presented here.
Enter reported pIC50 observed with UniProtKB P00533 for Cc1nn([C@H]2CC[C@@H]2O)c2c1/C=C/c1n[nH]c3ccc(cc13)-c1cnn(C)c1OCCCO2 (racemic)
< 6.00

* * *

pIC50: −log10 of the molar value.
Record set: pIC50 | Epidermal growth factor receptor (Homo sapiens, UniProt P00533) | literature, multiple sources.

{"smiles input": "CNC1CCC2(CC1)CN(c1ccc(Nc3ncc(Cl)c(Nc4ccccc4P(C)(C)=O)n3)cc1C)C2", "pIC50": 7.18}
{"smiles input": "C=CC(=O)Nc1cc(-c2c(-c3ccc(C4CCN(C)CC4)cc3)[nH]c3ncccc23)ccc1C", "pIC50": "≥ 7.00"}
{"smiles input": "C[C@@H](Nc1ncnc2[nH]c(-c3ccc(OCCCCCCC(=O)NO)cc3)cc12)c1ccccc1", "pIC50": "> 7.00"}

Using the record for C=CC(=O)Nc1cc(-c2c(-c3ccc(CN(C)C)cc3)[nH]c3ncc(C(=O)OC(C)C)cc23)cc(F)c1C , report its pIC50.
≥ 7.00

* * *

Record set: IC50 | Epidermal growth factor receptor (Homo sapiens, UniProt P00533) | literature, multiple sources.

Field: example entries. Status: answers known.
{"smiles input": "COCCN1CCC(Nc2ccc3c(c2)/C(=C(\\c2ccc(OC)cc2)c2ncc[nH]2)C(=O)N3)CC1", "IC50": "> 5000 nM"}
{"smiles input": "CC(C)c1noc2c1/C=C/c1n[nH]c3ccc(cc13)-c1cnn(C)c1O[C@@H](C)CN(C)C2", "IC50": "> 1000 nM"}
{"smiles input": "Cc1cc(Nc2ncnc3cnc(N4CCO[C@]5(CCOC5)C4)nc23)ccc1Oc1ccc2c(c1)ncn2C", "IC50": "≥ 10000 nM"}
{"smiles input": "CN(C)C/C=C/C(=O)N1CCOc2c1ccc1ncnc(Nc3ccc(OCc4cccc(F)c4)c(C(F)(F)F)c3)c21", "IC50": "≤ 50 nM"}

Using the record for CC#CC(=O)N1CCC[C@H]1c1nc(-c2ccc(Oc3ccccc3)cc2)c2c(N)nccn12 , report its IC50.
> 1000 nM

Next molecule: Cc1c(/C=C2\C(=O)Nc3ncnc(Nc4ccc(F)c(Cl)c4)c32)[nH]c2c1C(=O)N(CCN1CCOCC1)CC2
310 nM

Next molecule: COc1cc(/C=C2\CCC/C(=C\c3cccc(Br)c3)C2=O)cc(OC)c1
6850 nM

* * *

Record set: IC50 | Epidermal growth factor receptor (Homo sapiens) | literature, multiple sources.

{"molecule": "CC(=O)N1CCN(c2ccc(Nc3nccc(-c4sc(C(C)C)nc4-c4cccc(NS(=O)(=O)c5cc(F)ccc5F)c4)n3)cn2)CC1", "observed property": "IC50", "test value": "100 to 1000 nM"}

Using the record for C=CC(=O)Nc1cccc(Nc2nc(Nc3ccc4c(c3)OC[C@H]3CN(C(=O)C(F)(F)F)CCN43)ncc2C(F)(F)F)c1 , report its IC50.
< 100 nM

Next molecule: Cc1ccc(Oc2ccc(Nc3ncnc4sc5c(c34)CCN(C(=O)/C=C/CN3CCC4(CCOC4)C3)C5)cc2C)cn1 (centres unmarked)
> 10000 nM

Next molecule: CCc1cc(Nc2ncc(Br)c(Nc3ccc(-c4cnn(C)c4)cc3P(C)(C)=O)n2)c(OC)cc1N1CCC(N(C)C)CC1
8.2 nM

Next molecule: Cc1ccnc(NC(=O)c2ccc(Oc3ccnc4[nH]nc(N[C@@H]5CCCN(C(=O)C#CCO)C5)c34)cc2)c1
100 to 1000 nM

Next molecule: CCCCCCNCc1ccc(-c2ccc3ncnc(Nc4ccc(OCc5cccc(F)c5)c(Cl)c4)c3c2)o1
< 10000 nM

Next molecule: CCN1CCC(Nc2ccc3c(c2)/C(=C(\c2ccc(OC)cc2)c2nc4cc(OC)ccc4[nH]2)C(=O)N3)CC1
500 to 5000 nM

Next molecule: CC(C)Oc1nn(CCO)c2c1/C=C/c1n[nH]c3ccc(cc13)-c1cnn(C)c1O[C@H](C)CN(C1CC1)C2
154 nM

Next molecule: CCOC(C)Oc1cc2ncnc(Nc3ccc(Cl)c([N+](=O)[O-])c3)c2c2c1OCCO2 (centres unmarked)
< 300 nM

Next molecule: COc1cc(N2CCC(N3CCN(CCS(C)(=O)=O)CC3)CC2)ccc1Nc1nccc(-c2sc(C(C)C)nc2-c2cccc(NS(=O)(=O)c3c(F)cccc3F)c2)n1
< 100 nM

Next molecule: CC(C)Oc1ccccc1C(=O)NCc1ccc(-c2nn(C3CCCC3)c3ncnc(N)c23)cc1
1000 to 10000 nM

Next molecule: CNc1nc(Nc2ccc(N3CCC(N4CCN(C)CC4)CC3)cc2)c(C(N)=O)nc1-c1ccccc1
> 300 nM

Next molecule: CC#CC(=O)N1CCC[C@H]1c1nc(-c2ccc(C(=O)Nc3ccc(C)cn3)c(OC)c2)c2c(N)nccn12
> 1000 nM

Next molecule: COCCN1CCC(Nc2ccc3c(c2)/C(=C(\c2cc(F)cc(F)c2)c2nc(C)c[nH]2)C(=O)N3)CC1
50 to 500 nM

* * *

Record set: IC50 | Epidermal growth factor receptor (Homo sapiens) | literature, multiple sources.
observed property: IC50 (nM)

{"smiles input": "CN1CCN(C2CCN(c3ccc(Nc4nc(Nc5cccc6c5N(S(C)(=O)=O)CC6)c5cc[nH]c5n4)c4c3CCO4)CC2)CC1", "IC50, nM": 106}

[a] CN(C)C/C=C/C(=O)Nc1cccc(Nc2ncc(Cl)c(Nc3ccc4ccccc4c3)n2)c1
[b] CCc1cc(Nc2nc(Nc3cccc4c3N(S(C)(=O)=O)CC4)c3cc[nH]c3n2)c(OC)cc1N1CCC(N2CCN(C)CC2)CC1
[c] COc1cnc(Nc2ccc(N3CCC4(CC3)CC(N)C4)c(C)c2)nc1Nc1ccccc1P(C)(C)=O
// smallest IC50 at index 0, largest at the end Please list each label once, in the requested order.
b, c, a
(b: 29 nM, c: 127 nM, a: 4750 nM)

* * *

pIC50: −log10 of the molar value.
Record set: pIC50 | Epidermal growth factor receptor (Homo sapiens, UniProt P00533) | literature, multiple sources.

Field: example entries. Status: answers known.
{"molecule": "COc1cc(N2CCC(N3CCN(C)CC3)CC2)ccc1Nc1nc(Nc2cccc3c2N(S(C)(=O)=O)CC3)c2nc[nH]c2n1", "subject of test": "Epidermal growth factor receptor (Homo sapiens, UniProt P00533)", "test value": 8.51}
{"molecule": "C=CC(=O)Nc1cc(-c2c(-c3ccc(C4CCN(C)CC4)cc3)[nH]c3ncc(C(=O)OC(C)C)cc23)ccc1C", "subject of test": "Epidermal growth factor receptor (Homo sapiens, UniProt P00533)", "test value": "≥ 7.00"}
{"molecule": "C=CC(=O)Nc1cccc(N2C(=O)N(C)Cc3cnc(Nc4ccc(N5CCN(C)CC5)cc4OC)nc32)c1", "subject of test": "Epidermal growth factor receptor (Homo sapiens, UniProt P00533)", "test value": "≥ 8.00"}

Using the record for C=CC(=O)Nc1cccc(N2C(=O)N(c3ccc(-c4ccccc4)cc3)Cc3cnc(Nc4ccc(N5CCN(C)CC5)cc4OC)nc32)c1 , report its pIC50.
≥ 8.00

Next molecule: C=CC(=O)Nc1cc(Nc2cc(Oc3ccc(Oc4ccccc4)cc3)ncn2)cc(C(=O)NCCOC)c1
≥ 8.00

Next molecule: CC(C)Oc1cc2ncnc(Nc3ccc(Cl)c([N+](=O)[O-])c3)c2c2c1OCCO2
> 7.00

Next molecule: CN(C)C/C=C/C(=O)N1CC[C@@H](Nc2n[nH]c3nccc(Oc4ccc(Oc5ccccc5)cc4S(N)(=O)=O)c23)C1
6.00 to 7.00

Next molecule: COc1ccccc1C(=O)NCc1ccc(-c2nn(C3CCCC(=O)C3)c3ncnc(N)c23)cc1 (centres unmarked)
6.00 to 7.00

Next molecule: CCc1cc(Nc2ncc(Br)c(Nc3ccc(-c4cn(C)c5ncccc45)cc3P(C)(C)=O)n2)c(OC)cc1N1CCC(N2CCN(C)CC2)CC1
7.32

Next molecule: CC(C)N(C)C/C=C/C(=O)N1CCOc2c1ccc1ncnc(Nc3ccc(OCc4ccccn4)c(Cl)c3)c21
≥ 7.30

Next molecule: C=CC(=O)Nc1cccc(Nc2nc(Nc3ccc4c(c3)OC[C@@H]3COCCN43)ncc2C(F)(F)F)c1
> 7.00

Next molecule: CCNC(=O)N[C@@H]1CCCN(c2n[nH]c3nccc(Oc4ccc(C(=O)Nc5cc(C(F)(F)F)ccn5)cc4)c23)C1
5.00 to 6.00

Next molecule: C=CC(=O)Nc1cccc(Oc2nc(Nc3ccc(N4CCOCC4)cc3OC)ncc2C(F)(F)F)c1
7.00 to 7.52

Next molecule: C=CC(=O)Nc1cc(-c2c(-c3ccc(N4CCN(C)CC4)cc3)[nH]c3ncc(C(=O)NCc4ccc(F)cc4F)cc23)ccc1C
≥ 7.00
